# study-target: β-catenin (Homo sapiens)
# Sequence (P35222 whole entry): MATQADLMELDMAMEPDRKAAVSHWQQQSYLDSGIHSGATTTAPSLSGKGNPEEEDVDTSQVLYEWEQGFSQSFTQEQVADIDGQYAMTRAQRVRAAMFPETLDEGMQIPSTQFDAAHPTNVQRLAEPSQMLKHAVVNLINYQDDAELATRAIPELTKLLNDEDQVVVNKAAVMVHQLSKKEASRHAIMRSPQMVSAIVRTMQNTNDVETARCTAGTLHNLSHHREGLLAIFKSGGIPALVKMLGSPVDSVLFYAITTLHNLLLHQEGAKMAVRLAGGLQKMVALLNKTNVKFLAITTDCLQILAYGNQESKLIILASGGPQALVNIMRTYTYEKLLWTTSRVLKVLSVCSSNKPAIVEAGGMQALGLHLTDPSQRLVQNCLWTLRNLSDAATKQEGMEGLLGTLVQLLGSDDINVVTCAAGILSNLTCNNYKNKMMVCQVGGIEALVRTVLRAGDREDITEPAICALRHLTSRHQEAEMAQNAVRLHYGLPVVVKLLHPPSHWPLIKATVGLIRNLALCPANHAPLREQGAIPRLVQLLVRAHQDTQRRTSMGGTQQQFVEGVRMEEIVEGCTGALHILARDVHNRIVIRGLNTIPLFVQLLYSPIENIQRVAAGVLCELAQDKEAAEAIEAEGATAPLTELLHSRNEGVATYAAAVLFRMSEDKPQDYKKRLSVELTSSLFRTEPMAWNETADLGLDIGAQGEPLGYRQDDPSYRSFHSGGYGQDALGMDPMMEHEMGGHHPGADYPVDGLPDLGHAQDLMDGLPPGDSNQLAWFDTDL
# procedure-details: KD50 measurement using competitive fluorescence polarization (FP) with labelled TCF4
# Type: binding
# test-settings: fluorescence polarization, β-catenin
Where a SMILES comes first, the peptide text is derived from it.
Mark each entry true (1) if its β-Cat FP Hill slope sits below 1, and false (0) for all others.

# molecule, assigned-category
records = [
    ("CC[C@H](C)[C@@H]1NC(=O)[C@H](CC(C)C)NC(=O)[C@H](Cc2ccccc2)NC(=O)[C@H](Cc2c[nH]c3ccccc23)NC(=O)[C@@H](N)CC(=O)NCCCC[C@@H](C(=O)O)NC(=O)[C@H](Cc2c[nH]c3ccccc23)NC(=O)[C@H](C)NC(=O)[C@H](CS)NC1=O [compound 233] (HELM PEPTIDE1{D.W.F.L.I.C.A.W.K}$PEPTIDE1,PEPTIDE1,1:R3-9:R3$$$V2.0)", "true (1)"),
    ("CC[C@H](C)[C@H](NC(=O)[C@H](CC(C)C)NC(=O)[C@H](Cc1ccccc1)NC(=O)[C@H](Cc1c[nH]c2ccccc12)NC(=O)[C@@H](N)CCSC)C(=O)N[C@@H](CO)C(=O)N[C@@H](Cc1ccccc1)C(=O)N[C@@H](Cc1c[nH]c2ccccc12)C(=O)N[C@@H](CCC(=O)O)C(=O)NCC(=O)O [compound 47] (H-MWFLISFWEG-OH)", "false (0)"),
    ("CC[C@H](C)[C@@H]1NC(=O)[C@H](CC(C)C)NC(=O)[C@H](Cc2ccccc2)NC(=O)[C@H](Cc2c[nH]c3ccccc23)NC(=O)[C@@H](N)CC(=O)NCCCC[C@@H](C(=O)NCC(=O)O)NC(=O)[C@H](Cc2c[nH]c3ccccc23)NC(=O)[C@H](Cc2ccccc2)NC(=O)[C@H](CS)NC1=O [compound 176] (HELM PEPTIDE1{D.W.F.L.I.C.F.W.K.G}$PEPTIDE1,PEPTIDE1,1:R3-9:R3$$$V2.0)", "true (1)"),
    ("CC[C@H](C)[C@@H]1NC(=O)[C@H](CC(C)C)NC(=O)[C@H](Cc2ccccc2)NC(=O)[C@H](Cc2c[nH]c3ccccc23)NC(=O)[C@@H](N)CCCCNC(=O)C[C@@H](C(=O)O)NC(=O)[C@H](Cc2c[nH]c3ccccc23)NC(=O)[C@H](Cc2ccccc2)NC(=O)[C@H](CS)NC1=O [compound 172] (HELM PEPTIDE1{K.W.F.L.I.C.F.W.D}$PEPTIDE1,PEPTIDE1,1:R3-9:R3$$$V2.0)", "true (1)"),
    ("CC[C@H](C)[C@H](NC(=O)[C@H](CC(C)C)NC(=O)[C@@H](NC(=O)[C@H](Cc1c[nH]c2ccccc12)NC(=O)[C@H](CCSC)NC(C)=O)[C@@H](C)CC)C(=O)N[C@@H](CO)C(=O)N[C@@H](Cc1ccccc1)C(=O)N[C@@H](Cc1c[nH]c2ccccc12)C(=O)NCCCC(=O)O [compound 240] (HELM PEPTIDE1{[ac].M.W.I.L.I.S.F.W.[O=C(O)CCCN[*:1]]}$$$$V2.0)", "false (0)"),
    ("CC[C@H](C)[C@H]1NC(=O)[C@H](CC(C)C)NC(=O)[C@@H](Cc2ccccc2)NC(=O)[C@H](Cc2c[nH]c3ccccc23)NC(=O)[C@@H](CCSC)NC(=O)CCCCCCCCCCCNC(=O)C[C@@H](C(=O)O)NC(=O)[C@H](Cc2c[nH]c3ccccc23)NC(=O)[C@@H](C)NC(=O)[C@@H](CS)NC1=O [compound 193] (HELM PEPTIDE1{[O=C(CCCCCCCCCCCN[*:1])[*:2]].[dM].W.[dF].L.[CC[C@H](C)[C@@H](N[*:1])C(=O)[*:2]].[dC].[dA].W.D}$PEPTIDE1,PEPTIDE1,1:R1-10:R3$$$V2.0)", "false (0)"),
    ("CC[C@H](C)[C@H](NC(=O)[C@H](CC(C)C)NC(=O)[C@H](Cc1ccccc1)NC(=O)[C@H](Cc1c[nH]c2ccccc12)NC(=O)[C@@H](N)CCSC)C(=O)N[C@@H](CS)C(=O)N[C@@H](Cc1cn(C)cn1)C(=O)N[C@@H](Cc1c[nH]c2ccccc12)C(=O)NCC(=O)O [compound 140] (HELM PEPTIDE1{M.W.F.L.I.C.[Cn1cnc(C[C@H](N[*:1])C(=O)[*:2])c1].W.G}$$$$V2.0)", "true (1)"),
    ("CC[C@H](C)[C@@H]1NC(=O)[C@H](CC(C)C)NC(=O)[C@H](Cc2ccccc2)NC(=O)[C@H](Cc2c[nH]c3ccccc23)NC(=O)[C@@H](NC(C)=O)CCCCNC(=O)C[C@@H](C(=O)O)NC(=O)[C@H](Cc2c[nH]c3ccccc23)NC(=O)[C@H](C)NC(=O)[C@H](CS)NC1=O [compound 169] (HELM PEPTIDE1{[ac].K.W.F.L.I.C.A.W.D}$PEPTIDE1,PEPTIDE1,2:R3-10:R3$$$V2.0)", "true (1)"),
    ("CC[C@@H]1NC(=O)[C@H]([C@@H](C)CC)NC(=O)[C@H](CC(C)C)NC(=O)[C@H](C2CCCCC2)NC(=O)[C@H](Cc2c[nH]c3ccccc23)NC(=O)[C@@H](NC(C)=O)CCCCNC(=O)C[C@@H](C(=O)O)NC(=O)[C@H](Cc2c[nH]c3ccccc23)NC(=O)[C@H](C)NC1=O [compound 262] (HELM PEPTIDE1{[ac].K.W.[O=C([C@@H](N[*:1])C1CCCCC1)[*:2]].L.I.[Abu].A.W.D}$PEPTIDE1,PEPTIDE1,2:R3-10:R3$$$V2.0)", "false (0)"),
    ("CC[C@H](C)[C@@H]1NC(=O)[C@H](CC(C)C)NC(=O)[C@H](Cc2ccccc2)NC(=O)[C@H](Cc2c[nH]c3ccccc23)NC(=O)[C@@H](N)CCCCNC(=O)CC[C@@H](C(=O)NCC(=O)O)NC(=O)[C@H](Cc2c[nH]c3ccccc23)NC(=O)[C@H](Cc2ccccc2)NC(=O)[C@H](CS)NC1=O [compound 272] (HELM PEPTIDE1{K.W.F.L.I.C.F.W.E.G}$PEPTIDE1,PEPTIDE1,1:R3-9:R3$$$V2.0)", "true (1)"),
]

====

# maps each entry to its pEC50
# study-target: Wnt-responsive promoter (TCF/LEF)
# procedure-details: Wnt-dependent luciferase reporter assay
# Procedure: The luciferase reporter assay is commonly used as a tool to study gene expression at the transcriptional level. […] Luminescence was recorded to determine the peptides with the highest β-catenin-inhibiting activity. EC50 values were calculated based on the inhibition of luminescence and expressed as concentration (uM) in Table 5. Peptides were assessed for their ability to inhibit Wnt signaling. […]
pEC50: −log10 of the molar value. Where a SMILES comes first, the peptide text is derived from it.

# compound, pEC50
rows = [
    ("CC[C@H](C)[C@H](NC(=O)[C@H](CC(C)C)NC(=O)[C@H](Cc1ccccc1)NC(=O)[C@H](Cc1c[nH]c2ccccc12)NC(=O)[C@@H](N)CCSC)C(=O)N[C@@H](CO)C(=O)N[C@@H](C)C(=O)N[C@@H](Cc1c[nH]c2ccccc12)C(=O)NCC(=O)O [compound 160] (H-MWFLISAWG-OH)", "> 5.12"),
    ("CC[C@H](C)[C@H](NC(=O)[C@H](CC(C)C)NC(=O)[C@H](Cc1ccccc1)NC(=O)[C@@H](N)Cc1c[nH]c2ccccc12)C(=O)N[C@@H](CO)C(=O)N[C@H](C(=O)N[C@@H](Cc1c[nH]c2ccccc12)C(=O)O)[C@@H](C)O [compound 103] (H-WFLISTW-OH)", "4.65 to 4.82"),
    ("CC[C@H](C)[C@H](NC(=O)[C@H](CC(C)C)NC(=O)[C@@H](NC(=O)[C@H](Cc1c[nH]c2ccccc12)NC(=O)[C@@H](N)Cc1c[nH]c2ccccc12)[C@@H](C)CC)C(=O)N[C@@H](CO)C(=O)N[C@@H](Cc1ccccc1)C(=O)N[C@@H](Cc1c[nH]c2ccccc12)C(=O)NCC(=O)O [compound 127] (H-WWILISFWG-OH)", "4.82 to 5.12"),
    ("CC[C@H](C)[C@H](NC(=O)[C@H](CC(C)C)NC(=O)[C@H](Cc1ccccc1)NC(=O)[C@H](Cc1c[nH]c2ccccc12)NC(=O)[C@H](CCSC)NC(=O)[C@H](CCCNC(=N)N)NC(=O)[C@H](CO)NC(=O)[C@@H](N)CCC(=O)O)C(=O)N[C@@H](CO)C(=O)N[C@@H](Cc1ccccc1)C(=O)N[C@@H](Cc1c[nH]c2ccccc12)C(N)=O [compound 86] (H-ESRMWFLISFW-NH2)", "< 4.52"),
    ("CC[C@H](C)[C@H](NC(=O)[C@H](CC(C)C)NC(=O)[C@H](Cc1ccccc1)NC(=O)[C@H](Cc1c[nH]c2ccccc12)NC(=O)[C@@H](N)CCSC)C(=O)N[C@@H](CS)C(=O)N[C@@H](Cc1cn(C)cn1)C(=O)N[C@@H](Cc1c[nH]c2ccccc12)C(=O)NCC(=O)O [compound 140] (HELM PEPTIDE1{M.W.F.L.I.C.[Cn1cnc(C[C@H](N[*:1])C(=O)[*:2])c1].W.G}$$$$V2.0)", "4.65 to 4.82"),
    ("CC[C@H](C)[C@H](NC(=O)[C@H](CC(C)C)NC(=O)[C@H](Cc1ccccc1)NC(=O)[C@H](Cc1c[nH]c2ccccc12)NC(C)=O)C(=O)N[C@@H](C)C(=O)N[C@@H](Cc1ccccc1)C(=O)N[C@@H](Cc1c[nH]c2ccccc12)C(=O)NCC(=O)O [compound 196] (Ac-WFLIAFWG-OH)", "> 5.12"),
    ("CC[C@H](C)[C@H](NC(=O)[C@H](CC(C)C)NC(=O)[C@@H](NC(=O)[C@H](Cc1c[nH]c2ccccc12)NC(=O)[C@@H](N)CCSC)[C@@H](C)CC)C(=O)N[C@@H](CO)C(=O)N[C@@H](Cc1ccc(O)cc1)C(=O)N[C@@H](Cc1c[nH]c2ccccc12)C(=O)NCC(=O)O [compound 152] (H-MWILISYWG-OH)", "> 5.12"),
    ("CC[C@H](C)[C@H](NC(=O)[C@H](Cc1c[nH]c2ccccc12)NC(=O)[C@@H](N)CCSC)C(=O)N[C@@H](CC(C)C)C(=O)N[C@H](C(=O)N[C@@H](C(=O)N[C@@H](Cc1ccccc1)C(=O)N[C@@H](Cc1c[nH]c2ccccc12)C(=O)NCC(=O)O)[C@H](C)O)[C@@H](C)CC [compound 137] (HELM PEPTIDE1{M.W.I.L.I.[dT].F.W.G}$$$$V2.0)", "4.65 to 4.82"),
    ("CC[C@H](C)[C@H](NC(=O)[C@H](CC(C)C)NC(=O)[C@H](Cc1ccccc1)NC(=O)[C@H](Cc1c[nH]c2ccccc12)NC(=O)[C@H](CCSC)NC(=O)[C@H](CCCNC(=N)N)NC(=O)[C@H](CO)NC(=O)[C@@H](N)CCSC)C(=O)N[C@@H](CO)C(=O)N[C@@H](Cc1ccccc1)C(=O)N[C@@H](Cc1c[nH]c2ccccc12)C(=O)N[C@H](C(=O)NCC(=O)O)[C@@H](C)O [compound 44] (H-MSRMWFLISFWTG-OH)", "4.65 to 4.82"),
    ("CC[C@H](C)[C@H](NC(=O)[C@H](Cc1c[nH]c2ccccc12)NC(=O)[C@@H](N)CCSC)C(=O)N[C@@H](CC(C)C)C(=O)N[C@H](C(=O)N[C@@H](CO)C(=O)NC(C)(Cc1ccccc1)C(=O)N[C@@H](Cc1c[nH]c2ccccc12)C(=O)NCC(=O)O)[C@@H](C)CC (some centres unmarked) [compound 128] (HELM PEPTIDE1{M.W.I.L.I.S.[CC(Cc1ccccc1)(N[*:1])C(=O)[*:2]].W.G}$$$$V2.0)", "4.82 to 5.12"),
    ("CC[C@H](C)[C@@H]1NC(=O)[C@H](CC(C)C)NC(=O)[C@H](Cc2ccccc2)NC(=O)[C@H](Cc2c[nH]c3ccccc23)NC(=O)[C@H](CCSC)NC(=O)[C@@H](N)CCCCNC(=O)C[C@@H](C(=O)O)NC(=O)[C@H](Cc2c[nH]c3ccccc23)NC(=O)[C@H](Cc2ccccc2)NC(=O)[C@H](CO)NC1=O [compound 171] (HELM PEPTIDE1{K.M.W.F.L.I.S.F.W.D}$PEPTIDE1,PEPTIDE1,1:R3-10:R3$$$V2.0)", "> 5.12"),
]
